- System Under Test: human PAI-1 (Homo sapiens)
- Sequence (P05121 24-402): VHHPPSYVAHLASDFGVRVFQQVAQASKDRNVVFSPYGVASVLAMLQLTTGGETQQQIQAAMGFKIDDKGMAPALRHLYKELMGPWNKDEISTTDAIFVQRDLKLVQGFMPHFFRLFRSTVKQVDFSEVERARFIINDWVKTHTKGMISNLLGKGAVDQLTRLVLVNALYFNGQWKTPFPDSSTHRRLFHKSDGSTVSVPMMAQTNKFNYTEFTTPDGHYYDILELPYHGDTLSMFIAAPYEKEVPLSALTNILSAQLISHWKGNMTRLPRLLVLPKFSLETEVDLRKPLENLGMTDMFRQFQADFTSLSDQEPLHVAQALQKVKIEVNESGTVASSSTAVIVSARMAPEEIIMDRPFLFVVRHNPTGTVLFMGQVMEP
Quantity: IC50 (µM)
Entry rule: numbers only, all in µM.

Below are worked cases with known answers.
Smiles Record | Quantity | Data Value
Cc1c(Cc2ccccc2)c2cc(-c3ccc(OCc4nnn[nH]4)cc3)ccc2n1C | IC50 | 43.9
Cc1c(-c2ccccc2)n(Cc2ccccc2)c2cccc(-c3ccc(OCc4nnn[nH]4)cc3)c12 | IC50 | 25.7

[in] Name the reported IC50 value associated with the compound Cc1c(-c2ccccc2)n(C)c2cccc(-c3ccc(OCC(=O)O)cc3)c12
[out] 33.9

[in] Lookup O=C(O)COc1ccc(-c2ccc3c(c2)c2c(n3Cc3ccccc3)CCCC2)cc1
[out] 35.6

[in] Then this compound: c1ccc(Cn2c3c(c4cc(-c5ccc(OCc6nnn[nH]6)cc5)ccc42)CCCC3)cc1
[out] 27.5
